- Assay System: GluN1/GluN2D NMDARs (Rattus norvegicus, UniProt P35439+Q62645)
- Sequence (Q62645 28-1323, other chains not shown): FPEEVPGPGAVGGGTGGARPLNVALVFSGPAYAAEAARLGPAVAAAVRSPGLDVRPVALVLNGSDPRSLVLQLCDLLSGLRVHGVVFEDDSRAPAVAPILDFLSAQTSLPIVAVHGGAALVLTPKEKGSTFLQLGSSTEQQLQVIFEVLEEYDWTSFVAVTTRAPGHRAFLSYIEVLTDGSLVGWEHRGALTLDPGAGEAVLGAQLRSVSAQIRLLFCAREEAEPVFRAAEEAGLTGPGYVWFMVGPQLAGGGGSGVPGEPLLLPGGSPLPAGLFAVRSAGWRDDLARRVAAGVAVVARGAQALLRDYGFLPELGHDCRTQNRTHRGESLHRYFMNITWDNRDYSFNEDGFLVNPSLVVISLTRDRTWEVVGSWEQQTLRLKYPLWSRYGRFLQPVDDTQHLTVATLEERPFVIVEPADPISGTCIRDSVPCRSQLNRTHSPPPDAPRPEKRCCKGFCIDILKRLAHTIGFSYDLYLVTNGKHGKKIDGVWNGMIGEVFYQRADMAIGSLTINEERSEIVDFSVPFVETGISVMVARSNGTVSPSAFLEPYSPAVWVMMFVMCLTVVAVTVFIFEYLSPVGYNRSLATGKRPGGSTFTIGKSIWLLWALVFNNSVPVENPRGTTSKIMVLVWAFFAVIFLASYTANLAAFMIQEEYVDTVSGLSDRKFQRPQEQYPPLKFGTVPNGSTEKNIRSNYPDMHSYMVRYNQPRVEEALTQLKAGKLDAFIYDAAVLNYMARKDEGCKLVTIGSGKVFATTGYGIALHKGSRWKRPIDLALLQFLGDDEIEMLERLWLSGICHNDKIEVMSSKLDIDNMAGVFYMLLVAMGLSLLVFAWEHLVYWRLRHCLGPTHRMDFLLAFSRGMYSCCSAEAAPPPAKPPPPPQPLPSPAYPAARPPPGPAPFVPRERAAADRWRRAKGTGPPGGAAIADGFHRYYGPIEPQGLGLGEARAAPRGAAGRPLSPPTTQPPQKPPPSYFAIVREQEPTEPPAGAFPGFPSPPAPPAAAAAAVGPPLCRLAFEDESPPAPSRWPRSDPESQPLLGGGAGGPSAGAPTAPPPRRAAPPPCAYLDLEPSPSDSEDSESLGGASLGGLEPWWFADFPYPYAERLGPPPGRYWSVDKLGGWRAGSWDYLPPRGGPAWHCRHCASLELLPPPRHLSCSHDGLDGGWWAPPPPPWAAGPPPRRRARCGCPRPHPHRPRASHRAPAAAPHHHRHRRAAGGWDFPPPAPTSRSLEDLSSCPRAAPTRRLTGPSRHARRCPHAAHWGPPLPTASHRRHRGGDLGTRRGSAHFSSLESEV
- Assay: Two-electrode voltage-clamp recordings, Xenopus laevis oocytes expressing GluN1/GluN2D
- Format: cell-based
- Assay Context: saturating glutamate/glycine 100/30 µM; mean [95% CI]; read-out: EC50 (µM) [conf. int.]
Measure: EC50 (µM)

Check out these entries, answers already filled in.
CCOC(=O)c1c(NC(=O)CC2SC(=N)NC2=O)sc2c1CCC(C)C2 (stereo not shown)    0.2
CCCCOC(=O)c1c(NC(=O)CC2SC(=N)NC2=O)sc2c1CCCC2 (stereo not shown)    5.7
CCOC(=O)c1c(NC(=O)CC2SC(=N)NC2=O)sc2c1CCCC2 (stereo not shown)    0.36

(a) N=C1NC(=O)C(CC(=O)Nc2sc3c(c2C(=O)OCc2ccccc2)CCCC3)S1 (stereo not shown)
(b) CC1CCc2c(sc(NC(=O)CC3SC(=N)NC3=O)c2C(=O)OC(C)C)C1 (stereo not shown)
(c) CC(C)(C)OC(=O)c1c(NC(=O)CC2SC(=N)NC2=O)sc2c1CCCC2 (stereo not shown)
(d) CC(C)OC(=O)c1c(NC(=O)CC2SC(=N)NC2=O)sc2c1CCCC2 (stereo not shown)
Inquiry: Please put the entries in order of rising EC50. # the answer lists labels in the order requested
Reply text: b, a, c, d
